Source of measurements: PubChem BioAssay AID1963441

test system: NCI-H1876 complex spheroid growth, % test/control; assay: Anticancer human tumor NCI-H1876 cell line growth inhibition [Asc]; conditions: second compound 0.316 µM; first compound 0.03 µM; stronger effect = lower value;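 further: compound exposure lasted 7 days starting three days after seeding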;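 on viability, T/C: 100% = DMSO vehicle control wells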
Measurement Label: viability, T/C (%)
Could you give me the number in %? Just the number is fine.

stdin: Please look up its viability, T/C: NC(=O)C(=Cn1cnc(-c2cc(C(F)(F)F)cc(C(F)(F)F)c2)n1)c1cncnc1 + Cc1c(S(C)(=O)=O)c(-c2cc(F)cc(N3CCN(c4ccc(NS(=O)(=O)c5ccc(NC(CCN6CCC(C(=O)OCCCP(=O)(O)O)CC6)CSc6ccccc6)c(S(=O)(=O)C(F)(F)F)c5)cc4)CC3)c2)c(-c2ccc(Cl)cc2)n1C(C)C
stdout: 97.1

###

test system: NCI-H1876 complex spheroid growth, % test/control; experiment: Anticancer human tumor NCI-H1876 cell line growth inhibition [Asc]; details: second compound 0.1 µM; first compound 0.03 µM; stronger effect = lower value;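 further: compound exposure lasted 7 days starting three days after seeding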;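 on viability, T/C: 100% = DMSO vehicle control wells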
Measurement Label: viability, T/C (%)
Could you give me the number in %? Just the number is fine.

stdin: Please look up its viability, T/C: NC(=O)C(=Cn1cnc(-c2cc(C(F)(F)F)cc(C(F)(F)F)c2)n1)c1cncnc1 + Cc1c(S(C)(=O)=O)c(-c2cc(F)cc(N3CCN(c4ccc(NS(=O)(=O)c5ccc(NC(CCN6CCC(C(=O)OCCCP(=O)(O)O)CC6)CSc6ccccc6)c(S(=O)(=O)C(F)(F)F)c5)cc4)CC3)c2)c(-c2ccc(Cl)cc2)n1C(C)C
stdout: 106

###

Catalogue of compounds with associated viability, T/C
system: NCI-H1876 complex spheroid growth, % test/control; experiment: Anticancer human tumor NCI-H1876 cell line growth inhibition [Asc]; settings: second compound 0.03 µM; first compound 0.1 µM; stronger effect = lower value;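 further: compound exposure lasted 7 days starting three days after seeding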;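 on viability, T/C: 100% = DMSO vehicle control wells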
Could you give me the number in %? Just the number is fine.

Some compounds with known viability, T/C results, for comparison:
| Compound | viability, T/C (%) |
| --- | --- |
| O=C(c1ccc(F)c(F)c1Nc1ccc(I)cc1F)N1CC(O)([C@@H]2CCCCN2)C1 + CCN1C(C(=O)NC23CCC(C(=O)O)(CC2)CC3)C(c2cccc(Cl)c2F)C2(C(=O)Nc3cc(Cl)ccc32)C12CCCCC2 | 95.1 |
| CCN1CCN(Cc2ccc(Nc3ncc(F)c(-c4cc(F)c5nc(C)n(C(C)C)c5c4)n3)nc2)CC1 + CCN1C(C(=O)NC23CCC(C(=O)O)(CC2)CC3)C(c2cccc(Cl)c2F)C2(C(=O)Nc3cc(Cl)ccc32)C12CCCCC2 | 113 |
| CNC(C)C(=O)NC1CN(S(=O)(=O)c2cccc(S(=O)(=O)N3CCC4CCC(C(=O)NC(c5ccccc5)c5ccccc5)N4C(=O)C(NC(=O)C(C)NC)C3)c2)CCC2CCC(C(=O)NC(c3ccccc3)c3ccccc3)N2C1=O (stereo unspecified) + CCN1C(C(=O)NC23CCC(C(=O)O)(CC2)CC3)C(c2cccc(Cl)c2F)C2(C(=O)Nc3cc(Cl)ccc32)C12CCCCC2 | 98.4 |
| NC1CCC(NC2CC2c2ccccc2)CC1 (stereo unspecified) + CCN1C(C(=O)NC23CCC(C(=O)O)(CC2)CC3)C(c2cccc(Cl)c2F)C2(C(=O)Nc3cc(Cl)ccc32)C12CCCCC2 | 110 |
| Cn1ncnc1[C@H]1c2n[nH]c(=O)c3cc(F)cc(c23)N[C@@H]1c1ccc(F)cc1 + CCN1C(C(=O)NC23CCC(C(=O)O)(CC2)CC3)C(c2cccc(Cl)c2F)C2(C(=O)Nc3cc(Cl)ccc32)C12CCCCC2 | 95.4 |

Let us examine a further case.
stdin: Please look up its viability, T/C: COc1c(OCCCN2CCOCC2)ccc2c3n(c(=NC(=O)c4cnc(N)nc4)nc12)CCN3 + CCN1C(C(=O)NC23CCC(C(=O)O)(CC2)CC3)C(c2cccc(Cl)c2F)C2(C(=O)Nc3cc(Cl)ccc32)C12CCCCC2
stdout: 70.6

###

Tested on: NCI-H1876 complex spheroid growth, % test/control
Assay: Anticancer human tumor NCI-H1876 cell line growth inhibition [Asc];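 further: compound exposure lasted 7 days starting three days after seeding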;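 on viability, T/C: 100% = DMSO vehicle control wells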
Conditions: second compound 0.0949 µM; first compound 1 µM; stronger effect = lower value
Excerpt: Multicellular complex tumor spheroid response to apoptosis pathway targeting inhibitors Alrizomadlin, Pelcitoclax, and Dasminapant in combination with a variety of drugs and investigational agents in selected tumor cell lines […] Compounds. […] If the clinical Cmax for an agent had not been determined, the highest concentration tested was 10 microM. […]
Catalogue of compounds with associated viability, T/C
Could you give me the number in %? Just the number is fine.

stdin: Please look up its viability, T/C: CCN1CCN(Cc2ccc(Nc3ncc(F)c(-c4cc(F)c5nc(C)n(C(C)C)c5c4)n3)nc2)CC1 + CCN1C(C(=O)NC23CCC(C(=O)O)(CC2)CC3)C(c2cccc(Cl)c2F)C2(C(=O)Nc3cc(Cl)ccc32)C12CCCCC2
stdout: 127

stdin: // query: O=C(c1ccc(F)c(F)c1Nc1ccc(I)cc1F)N1CC(O)([C@@H]2CCCCN2)C1 + CCN1C(C(=O)NC23CCC(C(=O)O)(CC2)CC3)C(c2cccc(Cl)c2F)C2(C(=O)Nc3cc(Cl)ccc32)C12CCCCC2
stdout: 79.2

stdin: // query: COc1c(OCCCN2CCOCC2)ccc2c3n(c(=NC(=O)c4cnc(N)nc4)nc12)CCN3 + CCN1C(C(=O)NC23CCC(C(=O)O)(CC2)CC3)C(c2cccc(Cl)c2F)C2(C(=O)Nc3cc(Cl)ccc32)C12CCCCC2
stdout: 42.1

###

tested on: NCI-H1876 complex spheroid growth, % test/control; assay: Anticancer human tumor NCI-H1876 cell line growth inhibition [Asc]; settings: curve of first compound; second compound 0.1 µM;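 further: compound exposure lasted 7 days starting three days after seeding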
Measurement Label: IC50

Some compounds with known IC50 results, for comparison:
| Compound | IC50 |
| --- | --- |
| Cn1ncnc1[C@H]1c2n[nH]c(=O)c3cc(F)cc(c23)N[C@@H]1c1ccc(F)cc1 + CNC(C)C(=O)NC1CN(S(=O)(=O)c2cccc(S(=O)(=O)N3CCC4CCC(C(=O)NC(c5ccccc5)c5ccccc5)N4C(=O)C(NC(=O)C(C)NC)C3)c2)CCC2CCC(C(=O)NC(c3ccccc3)c3ccccc3)N2C1=O | > 0.1 µM |
| C=CC(=O)N1CCN(c2nc(=O)n(-c3c(C)ccnc3C(C)C)c3nc(-c4c(O)cccc4F)c(F)cc23)C(C)C1 (stereo not drawn) + Cc1c(S(C)(=O)=O)c(-c2cc(F)cc(N3CCN(c4ccc(NS(=O)(=O)c5ccc(NC(CCN6CCC(C(=O)OCCCP(=O)(O)O)CC6)CSc6ccccc6)c(S(=O)(=O)C(F)(F)F)c5)cc4)CC3)c2)c(-c2ccc(Cl)cc2)n1C(C)C | > 10 µM |

Let us examine a further case.
stdin: Please look up its IC50: CCN1C(C(=O)NC23CCC(C(=O)O)(CC2)CC3)C(c2cccc(Cl)c2F)C2(C(=O)Nc3cc(Cl)ccc32)C12CCCCC2 (stereo not drawn) + CNC(C)C(=O)NC1CN(S(=O)(=O)c2cccc(S(=O)(=O)N3CCC4CCC(C(=O)NC(c5ccccc5)c5ccccc5)N4C(=O)C(NC(=O)C(C)NC)C3)c2)CCC2CCC(C(=O)NC(c3ccccc3)c3ccccc3)N2C1=O
stdout: > 3 µM

###

tested on: NCI-H1876 complex spheroid growth, % test/control; experiment: Anticancer human tumor NCI-H1876 cell line growth inhibition [Asc]; conditions: second compound 1 µM; first compound 10 µM; active = viability on the fitted dose curve at most 10% of control; inactive = the rest;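 further: compound exposure lasted 7 days starting three days after seeding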
Please reply with one of these outcomes: active, inactive

| Compound | Class Assignment |
| --- | --- |
| C=C(F)C(=O)N1CCN(c2nc(OCC3CCCN3C)nc3c2CCN(c2cccc4cccc(Cl)c24)C3)CC1CC#N (stereo unspecified) + CNC(C)C(=O)NC1CN(S(=O)(=O)c2cccc(S(=O)(=O)N3CCC4CCC(C(=O)NC(c5ccccc5)c5ccccc5)N4C(=O)C(NC(=O)C(C)NC)C3)c2)CCC2CCC(C(=O)NC(c3ccccc3)c3ccccc3)N2C1=O | active |
| C=CC(=O)N1CCN(c2nc(=O)n(-c3c(C)ccnc3C(C)C)c3nc(-c4c(O)cccc4F)c(F)cc23)C(C)C1 (stereo unspecified) + Cc1c(S(C)(=O)=O)c(-c2cc(F)cc(N3CCN(c4ccc(NS(=O)(=O)c5ccc(NC(CCN6CCC(C(=O)OCCCP(=O)(O)O)CC6)CSc6ccccc6)c(S(=O)(=O)C(F)(F)F)c5)cc4)CC3)c2)c(-c2ccc(Cl)cc2)n1C(C)C | inactive |
| C=CC(=O)N1CCN(c2nc(=O)n(-c3c(C)ccnc3C(C)C)c3nc(-c4c(O)cccc4F)c(F)cc23)C(C)C1 (stereo unspecified) + CNC(C)C(=O)NC1CN(S(=O)(=O)c2cccc(S(=O)(=O)N3CCC4CCC(C(=O)NC(c5ccccc5)c5ccccc5)N4C(=O)C(NC(=O)C(C)NC)C3)c2)CCC2CCC(C(=O)NC(c3ccccc3)c3ccccc3)N2C1=O | inactive |
| C#Cc1c(F)ccc2cc(O)cc(-c3ncc4c(N5CC6CCC(C5)N6)nc(OCC56CCCN5CC(F)C6)nc4c3F)c12 (stereo unspecified) + Cc1c(S(C)(=O)=O)c(-c2cc(F)cc(N3CCN(c4ccc(NS(=O)(=O)c5ccc(NC(CCN6CCC(C(=O)OCCCP(=O)(O)O)CC6)CSc6ccccc6)c(S(=O)(=O)C(F)(F)F)c5)cc4)CC3)c2)c(-c2ccc(Cl)cc2)n1C(C)C | inactive |

stdin: Please share the test call associated with C#Cc1c(F)ccc2cc(O)cc(-c3ncc4c(N5CC6CCC(C5)N6)nc(OCC56CCCN5CC(F)C6)nc4c3F)c12 (stereo unspecified) + CNC(C)C(=O)NC1CN(S(=O)(=O)c2cccc(S(=O)(=O)N3CCC4CCC(C(=O)NC(c5ccccc5)c5ccccc5)N4C(=O)C(NC(=O)C(C)NC)C3)c2)CCC2CCC(C(=O)NC(c3ccccc3)c3ccccc3)N2C1=O .
stdout: inactive

stdin: // query: O=C(c1cc(Cc2n[nH]c(=O)c3ccccc23)ccc1F)N1CCN(C(=O)C2CC2)CC1 + Cc1c(S(C)(=O)=O)c(-c2cc(F)cc(N3CCN(c4ccc(NS(=O)(=O)c5ccc(NC(CCN6CCC(C(=O)OCCCP(=O)(O)O)CC6)CSc6ccccc6)c(S(=O)(=O)C(F)(F)F)c5)cc4)CC3)c2)c(-c2ccc(Cl)cc2)n1C(C)C
stdout: inactive
